The values you see were collected from PubChem BioAssay AID1851.

molecular target: Cytochrome P450 2D6 (Homo sapiens) (UniProt P10635); experiment: Cytochrome panel assay with activity outcomes; conditions: recombinant CYP, pro-luciferin dealkylation, luminescence, p450-cyp2d6; series mostly up to 57.1 µM
Sequence (P10635 whole entry, looked up): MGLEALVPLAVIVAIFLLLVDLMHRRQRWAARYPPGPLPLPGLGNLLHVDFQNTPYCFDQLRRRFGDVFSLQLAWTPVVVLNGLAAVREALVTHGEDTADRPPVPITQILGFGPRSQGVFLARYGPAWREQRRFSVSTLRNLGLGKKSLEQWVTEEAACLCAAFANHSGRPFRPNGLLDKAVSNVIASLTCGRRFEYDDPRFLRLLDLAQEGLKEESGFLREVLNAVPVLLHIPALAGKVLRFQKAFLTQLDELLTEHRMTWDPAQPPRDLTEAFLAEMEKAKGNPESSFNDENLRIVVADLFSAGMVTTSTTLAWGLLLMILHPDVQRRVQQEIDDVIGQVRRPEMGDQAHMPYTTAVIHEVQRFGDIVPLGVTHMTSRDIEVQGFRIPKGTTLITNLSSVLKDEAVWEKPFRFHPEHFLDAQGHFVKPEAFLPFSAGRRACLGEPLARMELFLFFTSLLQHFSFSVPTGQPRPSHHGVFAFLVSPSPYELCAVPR
Screen size: about 16,000 compounds; about 2,600 (16%) were called active. Inconclusive results (about 20%) are left out. The call rests on the fitted dose curve; in most records, active means well fitted curve in the direction sought with a large enough effect; inconclusive means small, poorly fitted or top-dose-only effect, or effect the other way; inactive means no such curve, though single readings can be large or run the other way. The list is a sample of the results.
The reply should be one of these categories: TRUE = active, FALSE = inactive

Kindly provide the recorded test outcome for the following molecule: O=C(NCCc1c[nH]c2ccccc12)[C@@H]1C[C@H]1[C@@H](NP(=O)(c1ccccc1)c1ccccc1)c1ccccc1 FALSE

Follow-up item: C[C@H](NCCC(c1ccccc1)c1ccccc1)c1ccccc1 TRUE

Follow-up item: O=C(NC1CCCCC1)C(c1ccccc1)N1CCOCC1 (configuration not stated) FALSE

Follow-up item: CC(=O)ON(C(C)=O)S(=O)(=O)c1ccc(Cl)cc1 FALSE

Follow-up item: C=CC[C@@H]1C=C[C@H](O/N=C(\C)CCN2CCCCc3nc(C)c(C)cc32)[C@H](CO)O1 TRUE

Follow-up item: Cn1c(-c2sccc2OCc2ccccc2)n[nH]c1=S FALSE

Follow-up item: c1ccc(-c2nnc(SCCC3OCCCO3)o2)cc1 FALSE

Follow-up item: COC(=O)c1c(C)[nH]c(O)c1C=Nc1ccc(C(C)C)cc1 FALSE

Follow-up item: COc1ccc(-c2nnc(-c3cccnc3)o2)cc1 FALSE

Follow-up item: O=C(NCCc1c[nH]c2ccccc12)[C@H]1C[C@@H]1[C@H](NP(=O)(c1ccccc1)c1ccccc1)c1ccccc1 FALSE

Follow-up item: Cc1cc(C(=O)OCC(=O)NCCC(C)C)c2ccccc2n1 FALSE

Follow-up item: N=c1sccn1CC(=O)Nc1cccc(Oc2ccccc2)c1 TRUE

###

molecular target: Cytochrome P450 2D6 (Homo sapiens); experiment: Cytochrome panel assay with activity outcomes; conditions: recombinant CYP, pro-luciferin dealkylation, luminescence, p450-cyp2d6; series mostly up to 57.1 µM
Among all 16,000 compounds or so, about 2,600 (16%) were called active. About 20% were inconclusive and are not listed. A selection follows.
value_type: AC50

Some compounds with known AC50 results, for comparison:
>>> observed_measurement("COc1cccc(Nc2ncc3nc(-c4cccs4)c(=O)n(CCC#N)c3n2)c1")
"inactive"
>>> observed_measurement("COc1ccc(-n2c(=O)c(-c3cc(F)cc(F)c3)nc3cnc(N4CCNCC4)nc32)cc1")
"inactive"
>>> observed_measurement("CCN(C(=S)Nc1ccccc1F)C1CCCCC1")
"inactive"
>>> observed_measurement("CN1CCN(CC(O)c2ccccc2)CC1 (centres undefined)")
"inactive"
>>> observed_measurement("CN(C)/C=C/C(=O)c1ccc(Cl)cc1")
"inactive"

Entry under review: O=C(Cc1ccc(S(=O)(=O)N2CCOCC2)s1)Nc1nc2c(s1)CCCC2 . Reported AC50? inactive

Follow-up item: CC(C)(C)C(=O)NC(=S)NCCc1ccccc1 inactive

Follow-up item: Fc1cc(Br)ccc1NC(=S)NCCc1ccccc1 20 µM (active)

###

biological target: Cytochrome P450 2D6 (Homo sapiens); assay: Cytochrome panel assay with activity outcomes; details: recombinant CYP, pro-luciferin dealkylation, luminescence, p450-cyp2d6; series mostly up to 57.1 µM
Out of some 16,000 compounds screened, about 2,600 (16%) were called active. Inconclusive results (about 20%) are left out. Calls come from the whole dose curve; as a rule, active = well fitted curve in the direction sought with a large enough effect; inconclusive = small, poorly fitted or top-dose-only effect, or effect the other way; inactive = no such curve, though single readings can be large or run the other way. The list is a sample of the results.
The reply should be one of these categories: Y = active, N = inactive

Kindly provide the recorded test outcome for the following compound: C/C=C1\C(=O)C[C@@H]2[C@@H]3CCC4=CC(=O)CC[C@@]4(C)[C@H]3CC[C@@]12C N

Follow-up item: Cc1c(-c2c(C#N)c(N)nc3c2CCCCCC3)cnn1C N

Follow-up item: CC(C(=O)NCc1ccc2c(c1)OCO2)N1c2cccc3cccc(c23)S1(=O)=O (centres undefined) Y

Follow-up item: CCCCOc1ccc(C(=O)NCc2ccco2)cc1 N

Follow-up item: Nc1nc2c(c(=O)[nH]1)N(C=O)[C@H](CNc1ccc(C(=O)N[C@@H](CCC(=O)O)C(=O)O)cc1)CN2 N

Follow-up item: c1ccc(Oc2cc(-c3ccccc3)ncn2)cc1 N

Follow-up item: Fc1ccc(SCCc2ccncc2)cc1 Y

Follow-up item: Cc1nc2cncnc2n(Cc2ccc(F)cc2)c1=O N

Follow-up item: Cc1ccc2nc(-c3ccc(NC(=O)Cc4cccs4)cc3)[nH]c2c1 N

Follow-up item: c1ccc(CCNc2nnnn2-c2ccccc2)cc1 N

Follow-up item: CCS(=O)(=O)NCCc1cc2ccc(C)cc2[nH]c1=O N

Follow-up item: COc1ccc(C(=O)c2c[nH]c(C(=O)NCc3cccs3)c2)cc1 N

Follow-up item: CCOc1cc(/C=C2/C(=O)N(c3ccccc3)N=C2C)ccc1OC(=O)c1ccco1 N

Follow-up item: CC(Sc1nc(-c2ccccc2)cc(C(F)(F)F)n1)C(=O)N1CCCCC1 (centres undefined) N

Follow-up item: Cc1cc(C)cc(N(C(=O)C2CCCC2)C2C=CS(=O)(=O)C2)c1 (centres undefined) N

Follow-up item: COc1ccc(CCN=CC2=C(O)CC(C)(C)CC2=O)cc1 N

Follow-up item: COc1ccc(C(=S)Nc2ccccc2)cc1 N

Follow-up item: NNC(=O)c1nn(-c2ccc(Cl)cc2)ccc1=O N

Follow-up item: COc1ccc(Nc2ncc(C(=O)N3CCN(Cc4ccccc4)CC3)c3ccccc23)cc1 N

Follow-up item: COc1ccccc1/C=C/C(=O)c1c2c(c(C)[nH]c1=O)CCCC2 N

Follow-up item: Cn1cc(C(=O)c2cccc(Cl)c2Cl)cc1C(=O)O N

Follow-up item: Nc1cc2c(nc3c4ccccc4c(N)cc3[n+]2-c2cccc3ccccc23)c2ccccc12 (tested in a mixture with another compound) Y

Follow-up item: O=C(O)CCC(=O)CCC(=O)c1ccccc1 N

Follow-up item: CC(=O)Nc1ccc(NC(=O)CSc2nnc(-c3ccccc3)n2Cc2ccc3c(c2)OCO3)cc1 Y

Follow-up item: CCCN(CC1CC1)c1nc(C)nc(Nc2c(Cl)cc(Cl)cc2Cl)c1Cl Y

Follow-up item: Cn1cc(-c2nc3cnc(Oc4ccccc4)nc3n(CCC#N)c2=O)c2ccccc21 N

Follow-up item: O=C(CC(c1ccccc1)c1ccccc1)Nc1ccc2c(c1)OCCO2 Y

Follow-up item: O=C1C(CCS(=O)c2ccccc2)C(=O)N(c2ccccc2)N1c1ccccc1 (centres undefined) N

Follow-up item: Cc1cc2cc(C)c3nnc(SCC(=O)NCc4ccc5c(c4)OCO5)n3c2cc1C Y

Follow-up item: COc1ccc2nc3oc(C(=O)NCc4cccs4)cc3cc2c1 N

Follow-up item: CC(C)(C)NC(=O)C(=O)N/N=C/c1ccc(Br)cc1 N

Follow-up item: CC(NC(=O)CCSc1nc(-c2ccc3c(c2)OCO3)cc(C(F)(F)F)n1)c1ccccc1 (centres undefined) Y

Follow-up item: COc1ccc(CNC(=O)C(c2ccc(C)cc2)N(Cc2cccs2)C(=O)c2ccc3c(c2)OCCO3)cc1 (centres undefined) N

Follow-up item: CC(C)(C)NC(=O)Cn1nnc(-c2ccccc2NC(=O)c2cnccn2)n1 N
